Values from the supplement of paper PMC7380943

# System: CLZ3 (HCA2 human fibroblast dual HR-NHEJ reporter);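 note: compound given one day ahead of doxycycline, which switches on I-SceI endonuclease to cut the chromosomally integrated reporter and create DSBs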
# procedure.summary: NHEJ repair efficiency (GFP+ cells) relative to control (log10 fold); higher = more non-homologous end joining
# condition.description: 5 µM; doxycycline 0.5 ug/mL
readout.name: NHEJ repair efficiency (log10)
The answer should be a number; do not append a unit.

response.value for Cc1ccc(C(C)C)cc1O [Carvacrol] (field: NHEJ repair efficiency (log10)) = -0.132

response.value for CC1(C)C=Cc2c(ccc3c2OC[C@@H](c2ccc(O)cc2O)C3)O1 [Glabridin] (field: NHEJ repair efficiency (log10)) = -0.0493

response.value for C[C@@H]1O[C@@H](O[C@H]2[C@H](Oc3cc(O)c4c(c3)O[C@H](c3ccc(O)cc3)CC4=O)O[C@H](CO)[C@@H](O)[C@@H]2O)[C@H](O)[C@H](O)[C@H]1O [Naringin] (field: NHEJ repair efficiency (log10)) = -0.127
